Origin of measurements: the supplement of paper PMC9732359

- protocol-summary: protein stability index of a GFP-peptide fusion (yeast GPS) (PSI 1-4); higher = more stable; sorted into four equal gates, so the index is relative within each strain
- condition-summary: san1∆
Let's look at some sequences and their measured protein stability index.
measured-endpoint: protein stability index

[[record]]
sequence_text = "TEYCVGDYVAYQLNGVA [YMR129W/POM152]"
reported_measurement = 2.1

[[record]]
sequence_text = "TDLKKIIKANQLILSDV [RET1]"
reported_measurement = 2.48

[[record]]
sequence_text = "NSMDMVDGMAKVPIGLI [RGR1]"
reported_measurement = 2.99

[[record]]
sequence_text = "VCQVTKFGLLLQVSAQE [ECM29]"
reported_measurement = 2.62

[[record]]
sequence_text = "NNTKAGRRKTWKRQNTL [RPL15A]"
reported_measurement = 2.44

[[record]]
sequence_text = "NNDFKLSIDKVLKKPNR [RET1]"
reported_measurement = 3.01

[[record]]
sequence_text = "LIENKIQNKKIQEQRVK [RPN8]"
reported_measurement = 2.74

[[record]]
sequence_text = "PLSTYNKNGNAVCSTAT [PGD1]"
reported_measurement = 2.37

[[record]]
sequence_text = "LAKSKASLTAARTAANS [RPN6]"
reported_measurement = 2.83

[[record]]
sequence_text = "LLAKAVANQTSATFLRI [RPT2]"
reported_measurement = 2.3


###

- protocol-summary: protein stability index of a GFP-peptide fusion (yeast GPS) (PSI 1-4); higher = more stable; sorted into four equal gates, so the index is relative within each strain
- condition-summary: pdr5∆
Let's look at some sequences and their measured protein stability index.
measured-endpoint: protein stability index

[[record]]
sequence_text = "LPYPTYWSDKKADTDTL [SNF5]"
measured_endpoint = "protein stability index"
reported_measurement = 2.92

[[record]]
sequence_text = "LLEPPAKELQGIDPDET [RPO31]"
measured_endpoint = "protein stability index"
reported_measurement = 3.11

[[record]]
sequence_text = "DVLKSQANTEPENITKR [MCD1]"
measured_endpoint = "protein stability index"
reported_measurement = 3.02

[[record]]
sequence_text = "SDMENDNLLLNLEQINE [REC8]"
measured_endpoint = "protein stability index"
reported_measurement = 2.75

[[record]]
sequence_text = "DSHKRIPDMSKNVELGW [SNU114]"
measured_endpoint = "protein stability index"
reported_measurement = 3.28

[[record]]
sequence_text = "NSKMPTRFPPAVFYTPK [PRP8]"
measured_endpoint = "protein stability index"
reported_measurement = 3.09

[[record]]
sequence_text = "SASTSATGISGSVSEET [ECM29]"
measured_endpoint = "protein stability index"
reported_measurement = 3.25

[[record]]
sequence_text = "YGIPLEFYNEMHRPVHF [PRP8]"
measured_endpoint = "protein stability index"
reported_measurement = 2.04

[[record]]
sequence_text = "GEKIDSNKPIFLFAPEL [SWI1]"
measured_endpoint = "protein stability index"
reported_measurement = 2.54

[[record]]
sequence_text = "RVNEMVQGMNDDIFIRY [ECM29]"
measured_endpoint = "protein stability index"
reported_measurement = 1.89

[[record]]
sequence_text = "QESSSTLSTHSTTTSVN [SIN4]"
measured_endpoint = "protein stability index"
reported_measurement = 3.12

[[record]]
sequence_text = "NHVMYTEVSRKSMKYVK [ECM29]"
measured_endpoint = "protein stability index"
reported_measurement = 2.61

[[record]]
sequence_text = "RSMDAEQLGHASKRHKP [RPP1]"
measured_endpoint = "protein stability index"
reported_measurement = 2.87

[[record]]
sequence_text = "PAFSFGAKPEEKKDDNS [YJL041W/NSP1]"
measured_endpoint = "protein stability index"
reported_measurement = 3.26

[[record]]
sequence_text = "DVNIIGKDRIAINVFPE [RPO31]"
measured_endpoint = "protein stability index"
reported_measurement = 3.05


###

- protocol-summary: protein stability index of a GFP-peptide fusion (yeast GPS) (PSI 1-4); higher = more stable; sorted into four equal gates, so the index is relative within each strain
- condition-summary: doa10∆
measured-endpoint: protein stability index

[[record]]
sequence_text = "RYFWLDHNGVPFPQYPA [ITC1]"
measured_endpoint = "protein stability index"
reported_measurement = 2.22

[[record]]
sequence_text = "KCFDDIEPHIFDQLIEW [YCG1]"
measured_endpoint = "protein stability index"
reported_measurement = 3.2

[[record]]
sequence_text = "HTKFEVAIGLNGKIWVK [RRP40]"
measured_endpoint = "protein stability index"
reported_measurement = 2.18

[[record]]
sequence_text = "YWVPDWDGVIPTPAIIK [RPO21]"
measured_endpoint = "protein stability index"
reported_measurement = 2.34

[[record]]
sequence_text = "VRTSATFRLPKTLKLAR [RPL25]"
measured_endpoint = "protein stability index"
reported_measurement = 2.84

[[record]]
sequence_text = "IYKRGQAGVTKASVTIV [SMC2]"
measured_endpoint = "protein stability index"
reported_measurement = 1.61

[[record]]
sequence_text = "MIVPVRCFSCGKVVGDK [RPB10]"
measured_endpoint = "protein stability index"
reported_measurement = 2.64

[[record]]
sequence_text = "IDYKLRVLTQDGRVYIG [SMB1]"
measured_endpoint = "protein stability index"
reported_measurement = 2.49

[[record]]
sequence_text = "RKWMEEKADYERELISN [YIL149C/MLP2]"
measured_endpoint = "protein stability index"
reported_measurement = 3.23

[[record]]
sequence_text = "DDFTNELKAELDRYKRE [SEM1]"
measured_endpoint = "protein stability index"
reported_measurement = 3.09

[[record]]
sequence_text = "ESNRQSVIVDSKVTVPP [ESC2]"
measured_endpoint = "protein stability index"
reported_measurement = 2.47

[[record]]
sequence_text = "KEYISRLWHTLKYYQDL [SNF5]"
measured_endpoint = "protein stability index"
reported_measurement = 1.47

[[record]]
sequence_text = "RTLWPEFIPPDPTKVTE [SSN8]"
measured_endpoint = "protein stability index"
reported_measurement = 2.49

[[record]]
sequence_text = "LLTEELAKSGSTEETTA [TAF14]"
measured_endpoint = "protein stability index"
reported_measurement = 3.05

[[record]]
sequence_text = "IGTNDLFQVESAPKISS [SIR4]"
measured_endpoint = "protein stability index"
reported_measurement = 2.42

[[record]]
sequence_text = "AVNMTQNIMTLPDGKNG [MED6]"
measured_endpoint = "protein stability index"
reported_measurement = 2.79

[[record]]
sequence_text = "IQIFRAHLWQKIHESIV [PRP8]"
measured_endpoint = "protein stability index"
reported_measurement = 2.4

[[record]]
sequence_text = "NISNAKLANFFSKKGNE [YAR002W/NUP60]"
measured_endpoint = "protein stability index"
reported_measurement = 2.83

[[record]]
sequence_text = "VHCRISCQIAQPYEDRP [RRP45]"
measured_endpoint = "protein stability index"
reported_measurement = 1.63


###

- protocol-summary: protein stability index of a GFP-peptide fusion (yeast GPS) (PSI 1-4); higher = more stable; sorted into four equal gates, so the index is relative within each strain
- condition-summary: pdr5∆
measured-endpoint: protein stability index

[[record]]
sequence_text = "LYSYLIKENFFERIMIL [YJL039C/NUP192]"
reported_measurement = 1.42

[[record]]
sequence_text = "YSTIRQLVYKRGFGKIN [RPL7A]"
reported_measurement = 1.97

[[record]]
sequence_text = "KTVPFQVNQLQRILEVL [SSN3]"
reported_measurement = 2.11

[[record]]
sequence_text = "EKIKKINYHQYISKAQN [SSN2]"
reported_measurement = 2.18

[[record]]
sequence_text = "MANDLVQARDNSQVFGV [RPS14B]"
reported_measurement = 2.36

[[record]]
sequence_text = "LHVEQLSGGQKTVCAIA [SMC3]"
reported_measurement = 2.08

[[record]]
sequence_text = "LLIEFPYLPKHYLVLLV [YJR042W/NUP85]"
reported_measurement = 1.67

[[record]]
sequence_text = "RTQAGDIVSIDIEEPQL [MTW1]"
reported_measurement = 3.26

[[record]]
sequence_text = "NETNDKKRNPSKQNGSK [PRP28]"
reported_measurement = 3.15

[[record]]
sequence_text = "YSIDEFFLQRKLRSELG [BRR2]"
reported_measurement = 2.06

[[record]]
sequence_text = "EFEYDDEPDEQGNPKKR [CYT1]"
reported_measurement = 3.28

[[record]]
sequence_text = "AAKEGLALSSNISRDFQ [COR1]"
reported_measurement = 3.08

[[record]]
sequence_text = "TGITKKDEDEEADEDMK [PRE9]"
reported_measurement = 3.3

[[record]]
sequence_text = "NLQTADTVIIFDTDWNP [SNF2]"
reported_measurement = 2.96

[[record]]
sequence_text = "GSAADTQAIADIVQYHL [PRE3]"
reported_measurement = 3.26

[[record]]
sequence_text = "DMAKLKKMMNTSDSEST [SWI3]"
reported_measurement = 2.27

[[record]]
sequence_text = "WAADSVSSRVRGYTCQF [FAS1]"
reported_measurement = 2.62

[[record]]
sequence_text = "LDKVINKELPINHTILG [RPN8]"
reported_measurement = 2.27

[[record]]
sequence_text = "SMQTIAETIILSSAGKN [SRB5]"
reported_measurement = 2.39

[[record]]
sequence_text = "LQIAQLTLKHRQNKVQH [RPN10]"
reported_measurement = 2.23

[[record]]
sequence_text = "TPNMVNSEISNLPKDKS [SSN2]"
reported_measurement = 3.08

[[record]]
sequence_text = "ETISNVAKTAPNSNKTH [SNF2]"
reported_measurement = 3

[[record]]
sequence_text = "NKKIYQWNKLTSFDIKR [POP6]"
reported_measurement = 2.95

[[record]]
sequence_text = "FAGSNNQPHQSQTPSFN [YOR098C/NUP1]"
reported_measurement = 2.91

[[record]]
sequence_text = "EMNLHVPQTEEARAEAI [RPO31]"
reported_measurement = 3.08

[[record]]
sequence_text = "SVFYTILRDYGPQEAAN [RPO31]"
reported_measurement = 3.25

[[record]]
sequence_text = "FAFWNLLVKFIKFFWNN [YLR018C/POM34]"
reported_measurement = 2

[[record]]
sequence_text = "HDSILHSRILPKKALKV [RRP43]"
reported_measurement = 2.04

[[record]]
sequence_text = "SPSPILLTSAGCKNGSF [NUT1]"
reported_measurement = 2.06

[[record]]
sequence_text = "DLNNAVQKRDEVKEQLG [SMC4]"
reported_measurement = 2.99

[[record]]
sequence_text = "PFNKPNIETGENHNGQS [SWI3]"
reported_measurement = 3.16

[[record]]
sequence_text = "DMDAESNESQNGKDSEI [SMC3]"
reported_measurement = 3.22

[[record]]
sequence_text = "LLDDKKLMDEDSVATVI [YJR042W/NUP85]"
reported_measurement = 2.91

[[record]]
sequence_text = "FEPASRLQGIKLLDNIQ [COR1]"
reported_measurement = 2.98

[[record]]
sequence_text = "RRSKMNPLWNAIIVAGV [PRE4]"
reported_measurement = 3.25

[[record]]
sequence_text = "SVLLHHKTMSIVGVLQD [RPT2]"
reported_measurement = 1.51

[[record]]
sequence_text = "TFEIPQAHEIVIPSYSK [SWI3]"
reported_measurement = 2.37

[[record]]
sequence_text = "TVHEMEEELKKLRDHEP [SMC4]"
reported_measurement = 3.26

[[record]]
sequence_text = "LIENKIQNKKIQEQRVK [RPN8]"
reported_measurement = 2.7

[[record]]
sequence_text = "EMAEKIDFTLLNRLLRL [PRP8]"
reported_measurement = 2.93

[[record]]
sequence_text = "GFKWLNKLDEYHGLYTN [LIN1]"
reported_measurement = 1.79

[[record]]
sequence_text = "DFLRKATAFNKTRGPFH [RPL16A]"
reported_measurement = 2.96

[[record]]
sequence_text = "ASVVPSASSLVITALKE [RPL12A]"
reported_measurement = 2.3

[[record]]
sequence_text = "DLTFKLADILKANISLE [RPO21]"
reported_measurement = 2.68

[[record]]
sequence_text = "YSSVAGTVSRVNRLLSV [RRP4]"
reported_measurement = 1.77

[[record]]
sequence_text = "RFRKLTSQEINDRLEAL [PRE8]"
reported_measurement = 3.01

[[record]]
sequence_text = "KPGSIDAISQVINIAKA [FAS1]"
reported_measurement = 2.87

[[record]]
sequence_text = "LGEEHPLQVARCTKIIK [RPT1]"
reported_measurement = 2.78

[[record]]
sequence_text = "KFKRHHSDRYHRVAENW [RPL32]"
reported_measurement = 3.21

[[record]]
sequence_text = "VSEGTRAVTKYSSSTQA [HTB1]"
reported_measurement = 3.15

[[record]]
sequence_text = "LIHPENFTCNRKILNFK [SWI1]"
reported_measurement = 2.49

[[record]]
sequence_text = "HDVGELFWKVKEEEGSF [PRE2]"
reported_measurement = 2.97

[[record]]
sequence_text = "LEATWNFIEPGINQILG [CDC53]"
reported_measurement = 2.75

[[record]]
sequence_text = "NPLADAEEALEPSYIFE [PRE4]"
reported_measurement = 2.83

[[record]]
sequence_text = "SLRSNVVVAETSPEKKD [YAR002W/NUP60]"
reported_measurement = 2.63

